# SYSTEM_UNDER_TEST: hFASN enzyme (full length) (Homo sapiens, UniProt P49327)
# Construct: 10 μL hFASN enzyme (full length, 300 ng, purified in house); made in house
# Sequence (P49327 whole entry): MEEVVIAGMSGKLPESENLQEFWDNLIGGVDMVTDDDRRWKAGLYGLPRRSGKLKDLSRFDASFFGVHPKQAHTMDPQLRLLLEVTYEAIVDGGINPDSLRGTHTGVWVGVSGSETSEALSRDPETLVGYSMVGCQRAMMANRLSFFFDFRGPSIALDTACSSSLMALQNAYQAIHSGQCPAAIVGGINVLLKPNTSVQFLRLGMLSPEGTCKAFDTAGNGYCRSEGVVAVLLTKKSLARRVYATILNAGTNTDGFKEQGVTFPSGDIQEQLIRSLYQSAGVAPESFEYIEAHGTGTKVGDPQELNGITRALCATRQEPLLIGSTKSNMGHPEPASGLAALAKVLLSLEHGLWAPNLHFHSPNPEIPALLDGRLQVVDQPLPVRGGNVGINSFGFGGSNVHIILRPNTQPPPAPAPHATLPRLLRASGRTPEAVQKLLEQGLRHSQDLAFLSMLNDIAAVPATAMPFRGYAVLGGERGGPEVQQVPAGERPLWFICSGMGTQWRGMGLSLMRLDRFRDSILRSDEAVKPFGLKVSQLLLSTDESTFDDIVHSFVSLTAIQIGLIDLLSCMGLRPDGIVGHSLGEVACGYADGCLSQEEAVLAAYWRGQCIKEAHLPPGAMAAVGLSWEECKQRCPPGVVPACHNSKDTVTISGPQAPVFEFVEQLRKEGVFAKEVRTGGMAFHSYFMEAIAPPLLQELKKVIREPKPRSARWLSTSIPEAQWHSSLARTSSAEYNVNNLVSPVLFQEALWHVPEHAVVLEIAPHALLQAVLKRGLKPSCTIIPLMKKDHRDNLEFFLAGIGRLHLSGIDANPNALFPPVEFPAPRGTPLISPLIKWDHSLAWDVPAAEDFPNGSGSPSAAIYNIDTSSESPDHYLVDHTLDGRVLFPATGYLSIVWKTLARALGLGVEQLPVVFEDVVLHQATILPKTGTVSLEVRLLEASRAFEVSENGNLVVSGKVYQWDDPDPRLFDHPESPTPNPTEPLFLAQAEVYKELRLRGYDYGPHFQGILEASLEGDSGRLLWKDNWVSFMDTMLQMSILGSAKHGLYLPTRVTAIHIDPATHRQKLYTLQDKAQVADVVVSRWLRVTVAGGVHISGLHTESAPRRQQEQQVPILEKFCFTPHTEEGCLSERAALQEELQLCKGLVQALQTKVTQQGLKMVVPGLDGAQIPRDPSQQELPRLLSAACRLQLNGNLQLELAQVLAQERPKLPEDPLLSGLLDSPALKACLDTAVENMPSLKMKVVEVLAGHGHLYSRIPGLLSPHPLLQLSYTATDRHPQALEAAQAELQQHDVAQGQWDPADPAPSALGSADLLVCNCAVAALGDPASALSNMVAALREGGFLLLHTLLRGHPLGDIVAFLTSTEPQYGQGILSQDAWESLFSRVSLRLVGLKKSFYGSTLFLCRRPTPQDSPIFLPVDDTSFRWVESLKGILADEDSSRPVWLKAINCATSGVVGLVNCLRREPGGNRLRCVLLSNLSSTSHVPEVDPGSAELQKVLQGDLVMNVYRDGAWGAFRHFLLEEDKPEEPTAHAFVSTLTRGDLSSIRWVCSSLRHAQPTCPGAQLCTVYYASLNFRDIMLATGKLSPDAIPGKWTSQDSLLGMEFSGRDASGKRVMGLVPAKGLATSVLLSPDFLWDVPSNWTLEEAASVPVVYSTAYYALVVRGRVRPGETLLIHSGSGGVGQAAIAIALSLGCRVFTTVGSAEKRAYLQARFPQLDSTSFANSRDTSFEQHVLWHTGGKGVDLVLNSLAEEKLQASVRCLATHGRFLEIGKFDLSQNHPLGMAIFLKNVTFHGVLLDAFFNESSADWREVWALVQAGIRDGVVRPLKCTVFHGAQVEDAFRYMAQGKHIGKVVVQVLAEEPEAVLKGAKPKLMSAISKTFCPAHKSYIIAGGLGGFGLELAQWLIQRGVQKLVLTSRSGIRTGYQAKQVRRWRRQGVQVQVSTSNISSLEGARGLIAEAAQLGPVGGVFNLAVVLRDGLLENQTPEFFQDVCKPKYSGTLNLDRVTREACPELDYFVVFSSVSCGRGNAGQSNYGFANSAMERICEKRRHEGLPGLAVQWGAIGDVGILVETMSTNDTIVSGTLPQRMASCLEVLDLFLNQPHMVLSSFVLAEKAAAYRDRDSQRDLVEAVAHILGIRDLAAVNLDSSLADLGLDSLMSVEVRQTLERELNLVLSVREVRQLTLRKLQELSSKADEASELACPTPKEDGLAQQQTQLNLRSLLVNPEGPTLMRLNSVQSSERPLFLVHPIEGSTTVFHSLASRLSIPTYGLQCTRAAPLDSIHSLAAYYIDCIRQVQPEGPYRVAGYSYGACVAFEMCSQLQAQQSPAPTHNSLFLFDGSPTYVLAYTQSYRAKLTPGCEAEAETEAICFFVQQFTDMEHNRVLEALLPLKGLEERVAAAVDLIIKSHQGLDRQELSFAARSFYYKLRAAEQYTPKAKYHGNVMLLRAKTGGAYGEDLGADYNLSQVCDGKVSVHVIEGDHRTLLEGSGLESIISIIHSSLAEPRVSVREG
# METHOD_DESCRIPTION: Fatty Acid Synthase (FASN) inhibition scintillation proximity assay
# Assay type: biochemical
# TEST_CONTEXT: read-out: Human FASN pIC50 (converted)
# Protocol: In this assay, inhibition of FASN activity is measured using ^3H-acetyl-CoA and malonyl-CoA as substrates. ^3H-Acetyl CoA is converted to ^3H-palmitate through a series of reactions by the FASN protein, which contains 7 functional domains and carries out 7 enzymatic reactions to ultimately produce ^3H-palmitate. The assay principle is based upon the fact that ^3H-acetyl-CoA is hydrophilic and the end product, ^3H-palmitate is hydrophobic. […]
Task for the reader: assign each of the following compounds its reported IC50.
API: value field is a number in nM; no unit string.

Task item: Missing value: IC50, hFASN enzyme (full length) (Homo sapiens, UniProt P49327), entry `O=C(C1CC1)N1CC[C@@H](CN2C(=O)C3(CCOCC3)N=C2c2ccc(-c3ccc4cccnc4c3)cc2)C1` . Fill in?
Reply: 58.9

Task item: Missing value: IC50, hFASN enzyme (full length) (Homo sapiens, UniProt P49327), entry `Cc1cc2cc(-c3ccc(C4=NC5(CCN(C(=O)C6CC6)CC5)C(=O)N4C[C@@H]4CCN(C(=O)C5CC5)C4)cc3)ccc2o1` . Fill in?
Reply: 214

Task item: Missing value: IC50, hFASN enzyme (full length) (Homo sapiens, UniProt P49327), entry `O=C(C1CC1)N1CC(CN2C(=O)C3(CC3)N=C2c2ccc(-c3nc4cc(F)c(F)cc4s3)cc2F)C1` . Fill in?
Reply: 282

Task item: Missing value: IC50, hFASN enzyme (full length) (Homo sapiens, UniProt P49327), entry CC(O)C(=O)N1CC(CN2C(=O)C3(CCOCC3)N=C2c2ccc(-c3ccc4c(cnn4C)c3)cc2)C1 (stereo not shown) . Fill in?
Reply: 6460

###

# SYSTEM_UNDER_TEST: hFASN enzyme (full length) (Homo sapiens, UniProt P49327)
# Construct: 10 μL hFASN enzyme (full length, 300 ng, purified in house); made in house
# METHOD_DESCRIPTION: Fatty Acid Synthase (FASN) inhibition scintillation proximity assay
# Format: biochemical
# TEST_CONTEXT: read-out: Human FASN % inhibition @ 10 μM, 10 μM test compound
# Description: In this assay, inhibition of FASN activity is measured using ^3H-acetyl-CoA and malonyl-CoA as substrates. ^3H-Acetyl CoA is converted to ^3H-palmitate through a series of reactions by the FASN protein, which contains 7 functional domains and carries out 7 enzymatic reactions to ultimately produce ^3H-palmitate. The assay principle is based upon the fact that ^3H-acetyl-CoA is hydrophilic and the end product, ^3H-palmitate is hydrophobic. […]
QUANTITY: inhibition at 10 µM (%)
API: value field is a number in %; no unit string.

Task item: What does the data say about its inhibition at 10 µM? Entry: `O=C(C1CC1)N1CC[C@@H](CN2C(=O)C3(CC3)N=C2c2ccc(-c3ccc4cc[nH]c4c3)c(F)c2)C1`
Reply: 98

Task item: What does the data say about its inhibition at 10 µM? Entry: `CC(C)N1CCC2(CC1)N=C(c1ccc(-c3ccc4occc4c3)cc1)N(CC1CN(C(=O)C3CC3)C1)C2=O`
Reply: 71.6

Task item: What does the data say about its inhibition at 10 µM? Entry: `Cc1cc(-c2nc3cc(Br)ccc3cc2C)ccc1C1=NC2(CC2)C(=O)N1CC1CN(C(=O)C2(C)CC2)C1`
Reply: 38

Task item: What does the data say about its inhibition at 10 µM? Entry: `O=C([C@H]1CCCO1)N1CC[C@@H](CN2C(=O)C3(CCOCC3)N=C2c2ccc(-c3ccc4cccnc4c3)cc2)C1`
Reply: 100

Task item: What does the data say about its inhibition at 10 µM? Entry: `O=C(C1CC1)N1CC(CN2C(=O)C3(CCCC3)N=C2c2ccc(-c3ccc4occc4c3)cc2)C1`
Reply: 92.1

Task item: What does the data say about its inhibition at 10 µM? Entry: `O=C(C1CC1)N1CC(CN2C(=O)C3(CC3)N=C2c2ccc(-c3ccc4cc(Cl)ccc4c3)cc2F)C1`
Reply: 102

Task item: What does the data say about its inhibition at 10 µM? Entry: `O=C(C1CC1)N1CC[C@@H](CN2C(=O)C3(CC3)N=C2c2ccc(-c3ccc4occc4c3)cc2F)C1`
Reply: 101
